- Test system: M14
- assay-text: NCI tumour cell line growth inhibition, 48 h
Activity calls are given as the source filed them. No stated cut-off is given here; in the data, active = GI50 up to about 1.1 µM and inactive = higher.
Labels: active, inactive

{"columns": ["molecule", "label-value"],
 "data": [
  ["NC1(c2cc3ccccc3s2)CCCC1", "inactive"],
  ["CCCCC(C(=O)N/N=C/c1ccc([N+](=O)[O-])o1)C(=O)N/N=C/c1ccc([N+](=O)[O-])o1", "inactive"],
  ["CN1N=C(c2ccncc2)OC1c1ccc(C(F)(F)F)cc1 (configuration not stated)", "inactive"],
  ["Cc1ccc2c(c1CCCC(C)(C)O)C(=O)C(O)=C(C(C)C)C2=O", "inactive"],
  ["CC1(C)C2CCC1(CS(=O)(=O)Nc1ccccc1)C(=O)C2 (configuration not stated)", "inactive"],
  ["CC(=O)OCCCC(NC(=O)OC(C)(C)C)C(=O)NC(CCCOC(C)=O)C(=O)NC(Cc1ccc([N+](=O)[O-])cc1)C(=O)NCC(=O)OCc1ccccc1 (configuration not stated)", "inactive"],
  ["CN(C)c1ncnc2c1ncn2CCn1cnc2c(N(C)C)ncnc21", "inactive"],
  ["O=S(=O)(O)CCSSCCS(=O)(=O)O", "inactive"],
  ["CC1(n2nc(-c3ccccc3)n(-c3ccccc3)c2=O)CSC1", "inactive"],
  ["C[P+](C)(C)c1ccccc1", "inactive"],
  ["Cc1c(CNc2ccc(Cl)c(C(=O)NC(CC(=O)O)C(=O)O)c2)ccc2nc(N)nc(N)c12 (configuration not stated)", "active"],
  ["COc1cc(C2c3cc4c(cc3[C@@H](Nc3ccc(C#N)cc3)C3COC(=O)[C@H]23)OCO4)cc(OC)c1O (some centres not stated)", "inactive"]
]}

====

- System: M19-MEL
- assay-text: NCI tumour cell line growth inhibition, 48 h
Activity calls are given as the source filed them. No stated cut-off is given here; in the data, active = GI50 up to about 1.1 µM and inactive = higher.
readout: GI50

{"columns": ["compound", "reported-measurement"],
 "data": [
  ["C[N+]1(C)C/C(=C/c2ccc(F)cc2)C(=O)/C(=C\\c2ccc(F)cc2)C1", "36.1 µM (inactive)"],
  ["CC(=O)OC(OC(C)=O)c1ncccc1C(=O)OC(C)C", "30.1 µM (inactive)"],
  ["O=CC1CCCc2ccccc21 (stereo unspecified)", "> 100 µM (inactive)"],
  ["CC(C)CCCCCCCCCCCCC(=O)NCC(=O)NC1C(C)OC(Nc2ncnc3c2ncn3C)C(O)C1O (stereo unspecified)", "11.4 µM (inactive)"],
  ["COc1ccc(C2C(Cl)C(=O)N2NC(=O)c2ccc(N)cc2)cc1 (stereo unspecified)", "> 100 µM (inactive)"],
  ["CC#CCC1CCC(OCC)=CC1=O (stereo unspecified)", "> 100 µM (inactive)"]
]}

====

- System: BT-549
- assay-text: NCI tumour cell line growth inhibition, 48 h
Activity calls are given as the source filed them. No stated cut-off is given here; in the data, active = GI50 up to about 1.1 µM and inactive = higher.
Possible outcomes: T (active), F (inactive)

{"columns": ["compound", "label-value"],
 "data": [
  ["C/C=C/CC(C(=O)OCC)(N(C)C(=O)OC(C)(C)C)S(=O)(=O)c1ccc(C)cc1 (stereo unspecified)", "F"],
  ["COC(COC(=O)N1CCN(C=O)CC1)C1=C(N2CC2)C(=O)C(C)=C(N2CC2)C1=O (stereo unspecified)", "T"],
  ["COc1ccc(C2(CC(C)O)SCCCS2)cc1 (stereo unspecified)", "F"],
  ["Nc1c2c(nc3ccccc13)-c1ccccc1NCCC2", "F"],
  ["N=c1ccn2c(n1)OC1C(OP(=O)(O)O)C(CO)OC12 (stereo unspecified)", "F"],
  ["Cc1cccc(C2NC(=O)c3ccccc3N2)c1 (stereo unspecified)", "F"],
  ["CCOC(=O)/C=C(\\C(=O)OCC)n1ccc(=O)n(Cc2cn(CCCCOC(C)=O)nn2)c1=O", "F"],
  ["CC(=O)NC(CCCCN(Cc1ccccc1)C(=O)N(CCCl)N=O)C(=O)NCc1ccccc1 (stereo unspecified)", "F"],
  ["O=C1CC(/C=C/c2ccco2)=C(O)C1=O", "F"],
  ["O=C1Nc2ccccc2/C1=C1/Nc2ccccc2/C1=N\\OCCNCC(O)C(O)C(O)C(O)CO (stereo unspecified)", "F"],
  ["O=P1(O)c2ccccc2Nc2cc(C(F)(F)F)ccc21", "F"]
]}
